experiment.summary: Plasma pharmacokinetics after single and multiple oral administration of A. paniculata aqueous extract capsules in healthy participants (HPLC-MS/MS, non-compartmental analysis)
Assay type: in vivo, human
particulars: human, plasma; multiple oral doses 120 mg × 3 times/day of andrographolide, n = 11, mean ± SD; read-out: AUC(0–8h)
Description: An opened-label, two-dosage, single- and multiple-oral dosing, single center, phase I safety and pharmacokinetic study was conducted in healthy participants while they were under a fasting condition. […] Two weeks prior to the beginning of the clinical study, the volunteers were advised to abstain from other dietary supplements, herbal products, or any concomitant medicines. During the period of the study, no other medications were allowed. […]
measured.metric: AUC(0-t) (ng·h/mL)
Answers are plain numbers, in ng·h/mL.

>  <compound>
C=C1CC[C@@H]2[C@](C)(CO)[C@H](O)CC[C@@]2(C)[C@@H]1C/C=C1/C(=O)OC[C@H]1O [Andrographolide, andrographolide]

>  <measured.metric>
AUC(0-t)

>  <result>
345

$$$$
>  <compound>
C=C1CC[C@@H]2[C@](C)(CO[C@@H]3O[C@H](CO)[C@@H](O)[C@H](O)[C@H]3O)CCC[C@@]2(C)[C@@H]1CCC1=CCOC1=O [Neoandrographolide, neoandrographolide]

>  <measured.metric>
AUC(0-t)

>  <result>
128

$$$$

Note: attention shifts to another entry.
Q. Field request: AUC(0-t) | item: C=C1CC[C@@H]2[C@](C)(CO)[C@H](O)CC[C@@]2(C)[C@@H]1CCC1=CCOC1=O [14-Deoxyandrographolide, 14-deoxyandrographolide]
A. 20

====

experiment.summary: Plasma pharmacokinetics after single and multiple oral administration of A. paniculata aqueous extract capsules in healthy participants (HPLC-MS/MS, non-compartmental analysis)
Type: in vivo, human
particulars: human, plasma; multiple oral doses 60 mg × 3 times/day of andrographolide, n = 12, median [IQR]; read-out: Tmax
measured.metric: Tmax (h)
Numbers only, in h.

Reference set, count: 2
>  <molecule>
C=C1CC[C@@H]2[C@](C)(CO)[C@H](O)CC[C@@]2(C)[C@@H]1CCC1=CCOC1=O [14-Deoxyandrographolide, 14-deoxyandrographolide]

>  <readout.units>
h

>  <result>
1

$$$$
>  <molecule>
C=C1CC[C@@H]2[C@](C)(CO[C@@H]3O[C@H](CO)[C@@H](O)[C@H](O)[C@H]3O)CCC[C@@]2(C)[C@@H]1CCC1=CCOC1=O [Neoandrographolide, neoandrographolide]

>  <readout.units>
h

>  <result>
1

$$$$

Note: attention shifts to another entry.
Q. Field request: Tmax | item: C=C1CC[C@@H]2[C@](C)(CO)[C@H](O)CC[C@@]2(C)[C@@H]1C/C=C1/C(=O)OC[C@H]1O [Andrographolide, andrographolide]
A. 0.65

====

experiment.summary: Plasma pharmacokinetics after single and multiple oral administration of A. paniculata aqueous extract capsules in healthy participants (HPLC-MS/MS, non-compartmental analysis)
Format: in vivo, human
particulars: human, plasma; single oral dose equivalent to 60 mg andrographolide, n = 12, median [IQR]
Provide the reported half-life of each item.
One number for each entry, in min.

>  <compound>
C=C1CC[C@@H]2[C@](C)(CO[C@@H]3O[C@H](CO)[C@@H](O)[C@H](O)[C@H]3O)CCC[C@@]2(C)[C@@H]1CCC1=CCOC1=O [Neoandrographolide, neoandrographolide]

>  <readout.units>
min

>  <result>
13.8

$$$$

Note: attention shifts to another entry.
Q. Field request: half-life | item: C=C1CC[C@@H]2[C@](C)(CO)[C@H](O)CC[C@@]2(C)[C@@H]1C/C=C1/C(=O)OC[C@H]1O [Andrographolide, andrographolide]
A. 78

====

Provide the reported MRT of each item.
experiment.summary: Plasma pharmacokinetics after single and multiple oral administration of A. paniculata aqueous extract capsules in healthy participants (HPLC-MS/MS, non-compartmental analysis)
Type: in vivo, human
particulars: human, plasma; single oral dose equivalent to 60 mg andrographolide, n = 12, mean ± SD; read-out: MRT

>  <compound>
C=C1CC[C@@H]2[C@](C)(CO)[C@H](O)CC[C@@]2(C)[C@@H]1C/C=C1/C(=O)OC[C@H]1O [Andrographolide, andrographolide]

>  <MRT>
6 h

$$$$

Q. Field request: MRT | item: C=C1CC[C@@H]2[C@](C)(CO[C@@H]3O[C@H](CO)[C@@H](O)[C@H](O)[C@H]3O)CCC[C@@]2(C)[C@@H]1CCC1=CCOC1=O [Neoandrographolide, neoandrographolide]
A. 1.8 h

====

experiment.summary: Plasma pharmacokinetics after single and multiple oral administration of A. paniculata aqueous extract capsules in healthy participants (HPLC-MS/MS, non-compartmental analysis)
Assay type: in vivo, human
particulars: human, plasma; multiple oral doses 120 mg × 3 times/day of andrographolide, n = 11, median [IQR]
Provide the reported half-life of each item.
Numbers only, in min.

Reference set, count: 2
>  <compound>
C=C1CC[C@@H]2[C@](C)(CO)[C@H](O)CC[C@@]2(C)[C@@H]1C/C=C1/C(=O)OC[C@H]1O [Andrographolide, andrographolide]

>  <half-life / min>
102

$$$$
>  <compound>
C=C1CC[C@@H]2[C@](C)(CO[C@@H]3O[C@H](CO)[C@@H](O)[C@H](O)[C@H]3O)CCC[C@@]2(C)[C@@H]1CCC1=CCOC1=O [Neoandrographolide, neoandrographolide]

>  <half-life / min>
11.4

$$$$

Note: attention shifts to another entry.
Q. Field request: half-life | item: C=C1CC[C@@H]2[C@](C)(CO)[C@H](O)CC[C@@]2(C)[C@@H]1CCC1=CCOC1=O [14-Deoxyandrographolide, 14-deoxyandrographolide]
A. 12.6

====

Provide the reported Tmax of each item.
experiment.summary: Plasma pharmacokinetics after single and multiple oral administration of A. paniculata aqueous extract capsules in healthy participants (HPLC-MS/MS, non-compartmental analysis)
Format: in vivo, human
particulars: human, plasma; single oral dose equivalent to 60 mg andrographolide, n = 12, median [IQR]; read-out: Tmax
One number for each entry, in min.

>  <molecule>
C=C1CC[C@@H]2[C@](C)(CO)[C@H](O)CC[C@@]2(C)[C@@H]1CCC1=CCOC1=O [14-Deoxyandrographolide, 14-deoxyandrographolide]

>  <readout.units>
min

>  <Tmax>
60

$$$$
>  <molecule>
C=C1CC[C@@H]2[C@](C)(CO[C@@H]3O[C@H](CO)[C@@H](O)[C@H](O)[C@H]3O)CCC[C@@]2(C)[C@@H]1CCC1=CCOC1=O [Neoandrographolide, neoandrographolide]

>  <readout.units>
min

>  <Tmax>
54

$$$$

Note: attention shifts to another entry.
Q. Field request: Tmax | item: C=C1CC[C@@H]2[C@](C)(CO)[C@H](O)CC[C@@]2(C)[C@@H]1C/C=C1/C(=O)OC[C@H]1O [Andrographolide, andrographolide]
A. 48

====

experiment.summary: Plasma pharmacokinetics after single and multiple oral administration of A. paniculata aqueous extract capsules in healthy participants (HPLC-MS/MS, non-compartmental analysis)
Format: in vivo, human
particulars: human, plasma; multiple oral doses 60 mg × 3 times/day of andrographolide, n = 12, mean ± SD; read-out: AUC(0-inf)
measured.metric: AUC(0-inf) (ng·h/mL)
One number for each entry, in ng·h/mL.

Q. Field request: AUC(0-inf) | item: C=C1CC[C@@H]2[C@](C)(CO[C@@H]3O[C@H](CO)[C@@H](O)[C@H](O)[C@H]3O)CCC[C@@]2(C)[C@@H]1CCC1=CCOC1=O [Neoandrographolide, neoandrographolide]
A. 69.7

====

experiment.summary: Plasma pharmacokinetics after single and multiple oral administration of A. paniculata aqueous extract capsules in healthy participants (HPLC-MS/MS, non-compartmental analysis)
Format: in vivo, human
particulars: human, plasma; single oral dose equivalent to 60 mg andrographolide, n = 12, mean ± SD
measured.metric: CL/F (mL/min/kg)
One number for each entry, in mL/min/kg.

>  <compound>
C=C1CC[C@@H]2[C@](C)(CO[C@@H]3O[C@H](CO)[C@@H](O)[C@H](O)[C@H]3O)CCC[C@@]2(C)[C@@H]1CCC1=CCOC1=O [Neoandrographolide, neoandrographolide]

>  <readout.units>
mL/min/kg

>  <result>
36.7

$$$$

Note: attention shifts to another entry.
Q. Field request: CL/F | item: C=C1CC[C@@H]2[C@](C)(CO)[C@H](O)CC[C@@]2(C)[C@@H]1C/C=C1/C(=O)OC[C@H]1O [Andrographolide, andrographolide]
A. 81.7

====

experiment.summary: Plasma pharmacokinetics after single and multiple oral administration of A. paniculata aqueous extract capsules in healthy participants (HPLC-MS/MS, non-compartmental analysis)
Assay type: in vivo, human
particulars: human, plasma; multiple oral doses 60 mg × 3 times/day of andrographolide, n = 12, mean ± SD
measured.metric: CL/F (mL/min/kg)
One number for each entry, in mL/min/kg.

Reference set, count: 2
>  <compound>
C=C1CC[C@@H]2[C@](C)(CO)[C@H](O)CC[C@@]2(C)[C@@H]1CCC1=CCOC1=O [14-Deoxyandrographolide, 14-deoxyandrographolide]

>  <readout.units>
mL/min/kg

>  <CL/F>
255

$$$$
>  <compound>
C=C1CC[C@@H]2[C@](C)(CO[C@@H]3O[C@H](CO)[C@@H](O)[C@H](O)[C@H]3O)CCC[C@@]2(C)[C@@H]1CCC1=CCOC1=O [Neoandrographolide, neoandrographolide]

>  <readout.units>
mL/min/kg

>  <CL/F>
65

$$$$

Note: attention shifts to another entry.
Q. Field request: CL/F | item: C=C1CC[C@@H]2[C@](C)(CO)[C@H](O)CC[C@@]2(C)[C@@H]1C/C=C1/C(=O)OC[C@H]1O [Andrographolide, andrographolide]
A. 75

The reported measurements were obtained from paper PMC10469688.
